Cited source for all entries: the supplement of paper PMC12764529

- protocolDescription: folding stability dG unfold from chymotrypsin proteolysis; higher = more stable
measureName: folding stability dG unfold (kcal/mol)

>  <inputSequence>
SAEVYEFGNAVVVVTTSPDGTVRVYVFNPETGEVTEIEIHPDTPGEYKVRPLGNGEVKEATVPVSDILPVSA [r9_1071_TrMRF]

>  <unitText>
kcal/mol

>  <measurement>
1.42

$$$$
>  <inputSequence>
SAGGSAGGSAGKVVVDFGKPALAEAFGVPLSEIENMSEEEALALAKPLVEEGVVDEVVLSSAGGSAGGSAGG [r11_80_TrMRF]

>  <unitText>
kcal/mol

>  <measurement>
0.524

$$$$
>  <inputSequence>
SAGGSAGGSAGSPVVTTEKVKTEGNTTVYRVTEPALNTETLVTEDAGANPTIKTTTYNTPSAGGSAGGSAGG [r11_738_JUSTAS]

>  <unitText>
kcal/mol

>  <measurement>
-0.937

$$$$
>  <inputSequence>
SAGGSAGGGSMSVSYDPSTGNTITTTTTRSPTPLTTTTTTTTFPDGSTSTSTTTTAAPPPAPTTSAGGSAGG [r6_955_JUSTAS]

>  <unitText>
kcal/mol

>  <measurement>
0.716

$$$$

###

- protocolDescription: folding stability dG unfold from trypsin proteolysis; higher = more stable

>  <inputSequence>
SAGGSAGGSDPAKKPVYLLATVEVEIGEVVDPNTGEPSHEHRVTVRFLITIDPDGNISISSLTSAGGSAGGS [r12_438_TrMRF]

>  <folding stability dG unfold>
2.9 kcal/mol

$$$$
>  <inputSequence>
SAGGMSVSITVTVTPTEVRVVENPTNGVNTAFTETTVTVTVNHPSSVSPEEKAALIAAVKAANPGAASAGGS [r8_306_JUSTAS]

>  <folding stability dG unfold>
2.86 kcal/mol

$$$$
>  <inputSequence>
SAGSSMLDSLTVDTEVTLDPAKGTVLVKTTTTLPDGTVTRTVTTVTVEPLNPPPPPPPRFDPRTGEALESAG [r5_816_JUSTAS]

>  <folding stability dG unfold>
0.79 kcal/mol

$$$$
>  <inputSequence>
SAGGSAGGSMTFEILPDGKTKTLTLDEAKELILNEVPPDTTVVNLDTGKVISAEEFLKLLGIKVSAGGSAGG [r6_937_JUSTAS]

>  <folding stability dG unfold>
0.998 kcal/mol

$$$$

###

Below: a set of entries, each annotated with reported folding stability dG unfold.
- protocolDescription: folding stability dG unfold from chymotrypsin proteolysis; higher = more stable

>  <inputSequence>
SAGKVIVIDAEEMTEEELKEILKKTKPGEKILIIAKSKEVAEKLKELGFEVEEVEKVPLTEEELKKLKKSAG [r5_354_TrROS_Hall]

>  <unitText>
kJ/mol

>  <folding stability dG unfold>
5.31

$$$$
>  <inputSequence>
SAGGMITTSTLSDGTTVVTIRVPGSPEEADAVAEEVREALLAAGYRTVEVSREPVEDGWVVTITTVSSAGGS [r8_113_JUSTAS]

>  <unitText>
kJ/mol

>  <folding stability dG unfold>
16.3

$$$$
>  <inputSequence>
SAGGSIVDRIRKILKEYGYTAQVERNGDGITIVVQFNKEQRKKIVSEIQEDFGYPIKIEVMPPGQELSAGGS [r16_514_TrROS]

>  <unitText>
kJ/mol

>  <folding stability dG unfold>
8.13

$$$$
>  <inputSequence>
SAGGSARVIRNPDYGMWIRLQPTDGGYTVQIEMYRPDPEDGKPKRRPMTHTIPPDDLPPEIRDLLKSAGGSA [r15_703_TrROS]

>  <unitText>
kJ/mol

>  <folding stability dG unfold>
2.15

$$$$
>  <inputSequence>
SAGGFEEKVKAGEEVVDVVAPITLPDGTEAVVTRVEPVDDGLLVTLRPPWTGEEVELPLPASEIPKLPSAGG [r13_340_JUSTAS]

>  <unitText>
kJ/mol

>  <folding stability dG unfold>
5.06

$$$$
>  <inputSequence>
SAGGSAGGMTPEEIRDALAAKLRAADPDVEVRPVRQEGDEVVVVVTRPATGERREVRVPADVPLSAGGSAGG [r6_446_JUSTAS]

>  <unitText>
kJ/mol

>  <folding stability dG unfold>
1.7

$$$$
>  <inputSequence>
SAGGSAGGSKIEIHVQVSPELSPEEALERIRREIEEALPEELKDISLDDIIITVYPSHPDVPLSAGGSAGGS [r12_384_TrMRF]

>  <unitText>
kJ/mol

>  <folding stability dG unfold>
-0.0932

$$$$
